# Tested on: UO-31 renal
# assay-info: NCI-60 one-dose screen, 48 h
# applied-conditions: 10 µM unless noted
The panel holds about 83,000 compounds, 20% with a hit somewhere; the sample as a whole holds those more often. Activity calls are given as the source filed them. How the source made its calls: active means growth percent below 10; inactive means the rest.
Entry note: the call must match one of active, inactive

Some solved cases for reference:
INSERT INTO measurements (compound, label) VALUES
  ('COc1ccc(-c2noc(N)c2-c2cc(OC)c3c(c2)OCO3)cc1', 'inactive'),
  ('Clc1nc(Cl)c2ncn(-c3ccccc3)c2n1', 'active'),
  ('O=C(C(Br)Br)C(Br)C(Br)c1ccccc1 (stereo unspecified)', 'inactive');

Q) Short answer needed: outcome of this test for Cn1cc(-c2csc(-c3cn(C)c4ncccc34)n2)c2cccnc21 ?
A) inactive

Q) How about Fc1ccc(-c2nnc(-c3c(-c4ccc(F)cc4)nc4ncccn34)o2)cc1 ?
A) inactive

Q) Field entry: CC12CCC3C(CCC4CC(=O)/C(=C\O)CC43C)C1CCC(=O)O2 (stereo unspecified)
A) inactive

====

# Tested on: SK-MEL-28 melanoma
# assay-info: NCI-60 one-dose screen, 48 h (100 = growth as untreated, 0 = no growth, -100 = all killed)
# applied-conditions: 10 µM unless noted
About 83,000 compounds went through this panel and 20% of them were active in at least one assay; those are over-represented in the sample as a whole.
Property: growth; scope: individual compounds
Note: unit % is implicit; provide only the numeric part.

Field: example entries. Status: answers known.
INSERT INTO assay_data (compound, measured_attribute, measured) VALUES
  ('c1ccc2c(c1)[nH]c1c2cc[n+]2cc3c(cc12)CCCC3', 'growth', 32.7),
  ('O=C(CCc1nnc(Cn2ccnc2)o1)c1nc2ccccc2[nH]1', 'growth', 116),
  ('N#Cc1c(N)[nH]c(S)c1C#N', 'growth', 113),
  ('OCCOc1c(Cl)cc(Cl)cc1Cl', 'growth', 96.8);

Q) Can you look up growth on SK-MEL-28 melanoma for CCOc1ccccc1C(=O)OCC(=O)Nc1cccc(S(=O)(=O)N(C)C)c1 ?
A) 104

====

# Tested on: SF-295 CNS
# assay-info: NCI-60 one-dose screen, 48 h
# applied-conditions: 10 µM unless noted
The panel holds about 83,000 compounds, 20% with a hit somewhere; the sample as a whole holds those more often. Activity calls are given as the source filed them. Rule for the calls: active = growth percent below 10; inactive = the rest.
Pick one: active, inactive

INSERT INTO results (molecule, target_entity, label) VALUES
  ('COc1cc(/C=C2\COc3ccc(O)cc3C2=O)cc(OC)c1', 'SF-295 CNS', 'inactive'),
  ('Cc1cc2c(C#N)n3c(c2cc1C)C(=O)C(c1ccccc1)Oc1ccccc1-3 (stereo unspecified)', 'SF-295 CNS', 'inactive'),
  ('Cn1cnc([N+](=O)[O-])c1S(=O)(=O)Oc1ccc(Cl)cc1', 'SF-295 CNS', 'inactive'),
  ('CCc1ccc(CCN2C(=O)c3ccccc3C2=O)nc1', 'SF-295 CNS', 'inactive'),
  ('CC1CC(C)/C(=N/NC(N)=O)C(C(O)CC2CCC(=O)NC2=O)C1 (stereo unspecified)', 'SF-295 CNS', 'active');

Q) Just curious, what result did O=C(Nc1nc(-c2ccccc2)cs1)c1cc(O)c(O)c(O)c1 get here?
A) inactive

All values here come from PubChem BioAssay (NCI).
